- Assay Notes: Cytotoxicity against human A549-ACE2 cells assessed as cell viability at 1 uM incubated for 48 hrs by CellTiter-Glo2 assay relative to control
- Assay type: toxicity, cell-based
- Experimental Parameters: a549-ace2, 48 h
Experimental Endpoint: Activity (%)
Expressed in %, but write only the number.

>>> value("N#Cc1cnn2c(NC3CC3)cc(Nc3ccc(F)c(-n4cnnc4)c3)nc12")
99
>>> value("COCCNc1ccc(Nc2cc(NC3CC3)n3ncc(C#N)c3n2)cc1-n1cnnc1")
99
>>> value("C[C@H](N)CN(C)c1ccc(Nc2cc(NC3CC3)n3ncc(C#N)c3n2)cc1-n1cnnc1")
76

Fill in the blank: the reported Activity of `CCN(CC)CCN(C)c1ccc(Nc2cc(NC3CC3)n3ncc(C#N)c3n2)cc1-n1cnnc1` is ____.
100

----------
Kinetic_solubility: recorded values
- Assay Notes: Kinetic solubility of compound in PBS at pH 7.4 incubated for 24 hrs by HPLC analysis
- Assay type: physicochemical
- Experimental Parameters: buffer, pH 7.4, 24 h
Don't forget the unit after the number, please.

Worked cases, Kinetic_solubility given:
>>> value("Cn1cnc(Nc2cc(Nc3cccc(-n4cnnc4)c3)nc3c(C#N)cnn23)c1")
"3.1 µg/mL"
>>> value("N#Cc1cnn2c(NC3CC3)cc(Nc3ccc(N4CC[C@@H](N)C4)c(-n4cnnc4)c3)nc12")
"44 µg/mL"
>>> value("N#Cc1cnn2c(NC3CC3)cc(Nc3ccc(N4CCC[C@H](N)C4)c(-n4cnnc4)c3)nc12")
"47 µg/mL"
>>> value("N#Cc1cnn2c(NC3CC3)cc(Nc3cccc(-n4cnnc4)c3)nc12")
"0.47 µg/mL"
>>> value("CN1CCN(c2ccc(Nc3cc(NC4CC4)n4ncc(C#N)c4n3)cc2-n2cnnc2)CC1")
"0.2 µg/mL"
>>> value("N#Cc1cnn2c(NC3CC3)cc(Nc3ccc(N4CCOCC4)c(-n4cnnc4)c3)nc12")
"1.1 µg/mL"

// Kinetic_solubility lookup, key: `N#Cc1cnn2c(Nc3ccn(CCN4CCCC4)n3)cc(Nc3cccc(-n4cnnc4)c3)nc12`
35 µg/mL

Using the record for `CN(CCN)c1ccc(Nc2cc(NC3CC3)n3ncc(C#N)c3n2)cc1-n1cnnc1` , report its Kinetic_solubility.
45 µg/mL

What value of Kinetic_solubility has been recorded for this entry: `CNCCN(C)c1ccc(Nc2cc(NC3CC3)n3ncc(C#N)c3n2)cc1-n1cnnc1`
16 µg/mL

Can you look up the measured Kinetic_solubility of `CCN(CC)CCN(C)c1ccc(Nc2cc(NC3CC3)n3ncc(C#N)c3n2)cc1-n1cnnc1` for me?
60 µg/mL

Endpoint output: Kinetic_solubility of `N#Cc1cnn2c(Nc3ccn(CCN4CCOCC4)n3)cc(Nc3cccc(-n4cnnc4)c3)nc12` . Value?
4 µg/mL

I'd like to know its Kinetic_solubility. The molecule in question is `CNCCn1cnc(Nc2cc(Nc3cccc(-n4cnnc4)c3)nc3c(C#N)cnn23)c1`
8.4 µg/mL

Name the recorded Kinetic_solubility for `CN(CCO)c1ccc(Nc2cc(NC3CC3)n3ncc(C#N)c3n2)cc1-n1cnnc1` .
38 µg/mL

I have this molecule here, `CN(CCN)c1cc(F)c(Nc2cc(NC3CC3)n3ncc(C#N)c3n2)cc1-n1cnnc1` , and I need its recorded Kinetic_solubility.
41 µg/mL

For `N#Cc1cnn2c(NC3CC3)cc(Nc3cc(-n4cnnc4)c(N4CC[C@H](N)C4)cc3F)nc12` , what is its reported Kinetic_solubility?
37 µg/mL

Can you look up the measured Kinetic_solubility of `N#Cc1cnn2c(Nc3cn(CCN4CCOCC4)cn3)cc(Nc3cccc(-n4cnnc4)c3)nc12` for me?
4.2 µg/mL

# get_value(readout='Kinetic_solubility', item= `CN(C)CCn1ccc(Nc2cc(Nc3cccc(-n4cnnc4)c3)nc3c(C#N)cnn23)n1` )
21 µg/mL

Given the entry `CNCCn1ccc(Nc2cc(Nc3cccc(-n4cnnc4)c3)nc3c(C#N)cnn23)n1` , report its measured Kinetic_solubility.
2.1 µg/mL

Fill blank: measured Kinetic_solubility of the molecule `CCN(CCN)c1cc(F)c(Nc2cc(NC3CC3)n3ncc(C#N)c3n2)cc1-n1cnnc1` is ____.
39 µg/mL
